# SUBJECT_OF_TEST: T1, recombinant human CD14 (B294801, histidine tagged) (Homo sapiens, UniProt P08571)
# T1 construct: His; purchased Shanghai BaiYing Biotechnology Co., Ltd B294801 (Batch number 20200518A22)
# T1 sequence (P08571 20-345): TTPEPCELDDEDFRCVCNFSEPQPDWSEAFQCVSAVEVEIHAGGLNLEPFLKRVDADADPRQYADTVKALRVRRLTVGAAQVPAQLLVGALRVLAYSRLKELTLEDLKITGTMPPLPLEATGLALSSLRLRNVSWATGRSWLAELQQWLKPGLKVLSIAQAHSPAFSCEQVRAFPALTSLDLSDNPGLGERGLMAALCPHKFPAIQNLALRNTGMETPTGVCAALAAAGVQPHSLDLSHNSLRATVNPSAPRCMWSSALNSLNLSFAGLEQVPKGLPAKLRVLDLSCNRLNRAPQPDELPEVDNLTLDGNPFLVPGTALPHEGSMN
# ASSAY_INFO: Biacore 8K kinetic and affinity test of humanized antibodies (Example 8)
# Assay type: binding
# COND: Biacore 8K, analyte B294801 0.78125-25 nM, capture 1 μg/mL
MEASUREMENT_KIND: kon (1:1 binding) (M⁻¹ s⁻¹)
Reply numerically in M⁻¹ s⁻¹, unit not repeated.

Answered examples (2):
D6DD3D005: humanized anti-CD14 antibody; VH SEQ ID NO: 17, VL SEQ ID NO: 19 (antibody, V domains shown) VH: QVQLQESGPGLVKPSETLSLTCTVSGYSITSDSAWNWIRQPPGKGLEWIGYISYSGSTSYNPSLKSRVTISRDTSKNQFSLKLSSVTAADTAVYYCVRGLRFAYWGQGTLVTVSS VL: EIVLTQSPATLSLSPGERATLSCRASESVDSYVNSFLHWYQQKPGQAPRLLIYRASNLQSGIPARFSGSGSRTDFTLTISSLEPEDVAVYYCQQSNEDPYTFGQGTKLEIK :: 1.51e+06
D6DD3D016: humanized anti-CD14 antibody; VH SEQ ID NO: 61, VL SEQ ID NO: 63 (antibody, V domains shown) VH: QVQLQESGPGLVKPSQTLSLTCTVSGYSITSDSAWNWIRQPPGKGLEWIGYISYSGSTSYNPSLKSRVTISRDTSKNQFSLKLSSVTAADTAVYYCVRGLRFAYWGQGTLVTVSS VL: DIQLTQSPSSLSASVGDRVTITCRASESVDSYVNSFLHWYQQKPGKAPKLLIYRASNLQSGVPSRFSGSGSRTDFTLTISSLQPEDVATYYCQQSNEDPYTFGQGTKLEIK :: 1.35e+06

Turning now to a further molecule:
q: State the recorded kon (1:1 binding) for this entry: D6DD3D006: humanized anti-CD14 antibody; VH SEQ ID NO: 21, VL SEQ ID NO: 23 (antibody, V domains shown) VH: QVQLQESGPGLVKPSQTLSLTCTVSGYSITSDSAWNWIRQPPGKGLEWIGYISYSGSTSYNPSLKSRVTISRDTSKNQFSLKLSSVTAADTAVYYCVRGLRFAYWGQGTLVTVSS VL: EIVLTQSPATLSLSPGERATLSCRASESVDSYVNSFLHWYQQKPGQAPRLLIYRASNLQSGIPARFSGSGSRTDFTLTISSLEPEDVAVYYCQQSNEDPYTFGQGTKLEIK
a: 1.43e+06
